experiment: Pharmacokinetics (plasma concentration, Cmax, AUC, trough); assay type: in vivo, human; conditions: human, plasma, oral, 100 mg, 100 mg QD Part 2; Day 7; read-out: Trough plasma concentration, Geo Mean
OBSERVABLE: concentration at 7 day (ng/mL)
# unit: ng/mL | format: bare number

Param item = CC(=O)N[C@H]1CC[C@H](NC(=O)CN2CCN(c3nncc(-c4ccc(C)cc4)n3)CC2)CC1 [Compound A HBr] ; retrieve measured concentration at 7 day.
35.1

====

assay: Pharmacokinetics (plasma concentration, Cmax, AUC, trough); format: in vivo, human; settings: human, plasma, oral, 50 mg, 50 mg QD; Day 7; read-out: Trough plasma concentration, Geo Mean
OBSERVABLE: concentration at 7 day (ng/mL)
# unit: ng/mL | format: bare number

Param item = CC(=O)N[C@H]1CC[C@H](NC(=O)CN2CCN(c3nncc(-c4ccc(C)cc4)n3)CC2)CC1 [Compound A HBr] ; retrieve measured concentration at 7 day.
16.6

====

assay: Pharmacokinetics (plasma concentration, Cmax, AUC, trough); type: in vivo, human; settings: human, plasma, oral, 100 mg, 100 mg QD Part 1; Day 7; read-out: Trough plasma concentration, Geo Mean
OBSERVABLE: concentration at 7 day (ng/mL)
# unit: ng/mL | format: bare number

Param item = CC(=O)N[C@H]1CC[C@H](NC(=O)CN2CCN(c3nncc(-c4ccc(C)cc4)n3)CC2)CC1 [Compound A HBr] ; retrieve measured concentration at 7 day.
53.4
